- Test Details: chemical genetic growth profiling, strain panel (AID 1159580);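 note: tested at 20 µM; growth read once vehicle control cultures reached saturation at 30 °C; 1 = growth at the plate median or of vehicle wells; lower values mean less growth of the strain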
- Run Conditions: S. cerevisiae deletion strains, growth OD, locus YDR318W, strain mcm21, hits give low values
Hit rate of the full screen: of about 5,500 compounds, about 2,000 (36%) were called active. Not shown: some 18% with an inconclusive outcome. The list shows a part of the results. Where a SMILES comes first, the peptide text is derived from it. The star is where a group is joined. For = O=C*
Experimental Readout: normalized growth

[
  {
    "Compound": "COc1ccc2c(c1)c(CC(=O)O)c(C)n2C(=O)c1ccc(Cl)cc1",
    "Experimental Readout": "normalized growth",
    "Test Result": 0.979
  },
  {
    "Compound": "CC(=O)/C=C\\[C@@H]1[C@@]2(C)CCCC(C)(C)C2CC[C@@]1(C)O (some centres not stated)",
    "Experimental Readout": "normalized growth",
    "Test Result": 1
  },
  {
    "Compound": "COC1=C[C@@H]2[C@@H]3Cc4ccc(OC)c(O)c4[C@]2(CCN3C)CC1=O",
    "Experimental Readout": "normalized growth",
    "Test Result": 0.995
  },
  {
    "Compound": "COC(=O)Nc1nc2ccc(Sc3ccccc3)cc2[nH]1",
    "Experimental Readout": "normalized growth",
    "Test Result": 1.01
  },
  {
    "Compound": "CC(=O)Nc1ccc(OCC(O)CNC(C)C)cc1 (configuration not stated)",
    "Experimental Readout": "normalized growth",
    "Test Result": 1
  },
  {
    "Compound": "N#CC(O[C@@H]1O[C@H](CO[C@@H]2O[C@H](CO)[C@@H](O)[C@H](O)[C@H]2O)[C@@H](O)[C@H](O)[C@H]1O)c1ccccc1 (some centres not stated)",
    "Experimental Readout": "normalized growth",
    "Test Result": 1
  },
  {
    "Compound": "Cc1cn([C@H]2C[C@H](N=[N+]=[N-])[C@@H](CO)O2)c(=O)[nH]c1=O",
    "Experimental Readout": "normalized growth",
    "Test Result": 1
  },
  {
    "Compound": "Cc1cc(O)c2c(c1)Cc1cccc(O)c1C2=O",
    "Experimental Readout": "normalized growth",
    "Test Result": 0.982
  },
  {
    "Compound": "O=C1c2c(O)cccc2Cc2cccc(O)c21",
    "Experimental Readout": "normalized growth",
    "Test Result": 0.994
  },
  {
    "Compound": "CC(=O)NC(C(=O)O)C(C)(C)SN=O (configuration not stated)",
    "Experimental Readout": "normalized growth",
    "Test Result": 1
  },
  {
    "Compound": "NCCC(=O)N[C@@H](Cc1cnc[nH]1)C(=O)O",
    "Experimental Readout": "normalized growth",
    "Test Result": 0.986
  },
  {
    "Compound": "CC(=O)OC1CC(OC(C)=O)C2(C)C(CC(OC(C)=O)C3(C)C4=CC(=O)OC(=O)C4(C)CCC32)C1(C)C (configuration not stated)",
    "Experimental Readout": "normalized growth",
    "Test Result": 0.99
  },
  {
    "Compound": "C[C@@H]1OC(O[C@H]2[C@H](O)[C@@H](O)[C@H](OC[C@H]3O[C@@H](OC(=O)[C@]45CCC(C)(C)CC4C4=CCC6[C@@]7(C)CC[C@H](OC8OC[C@H](O)[C@H](O)[C@H]8OC8O[C@@H](C)[C@H](O)[C@@H](O)[C@H]8O)[C@@](C)(CO)C7CC[C@@]6(C)[C@]4(C)CC5)[C@H](O)[C@@H](O)[C@@H]3O)O[C@@H]2CO)[C@H](O)[C@H](O)[C@H]1O (some centres not stated)",
    "Experimental Readout": "normalized growth",
    "Test Result": 0.993
  },
  {
    "Compound": "Cc1ccnc(NS(=O)(=O)c2ccc(N)cc2)n1",
    "Experimental Readout": "normalized growth",
    "Test Result": 1.02
  },
  {
    "Compound": "CC(C)(C#N)O[C@@H]1O[C@H](CO)[C@@H](O)[C@H](O)[C@H]1O",
    "Experimental Readout": "normalized growth",
    "Test Result": 1
  },
  {
    "Compound": "CC(=O)O[C@@H]1CC[C@@]2(C)C(CC[C@]3(C)C2CC=C2C4CC(C)(C)CC[C@]4(C(=O)O)CC[C@]23C)C1(C)C (some centres not stated)",
    "Experimental Readout": "normalized growth",
    "Test Result": 1.01
  },
  {
    "Compound": "COC(=O)C[C@H]1C(C)(C)C2(O)OC34CC2C(=O)[C@]1(C)C3CC[C@]1(C)C4=CC(=O)O[C@H]1c1ccoc1 (some centres not stated)",
    "Experimental Readout": "normalized growth",
    "Test Result": 1
  },
  {
    "Compound": "COC(=O)/C(C)=C\\CC12OC(C)(C)C3CC(C=C4C(=O)c5c(O)c6c(c(CCC(C)(C)Cl)c5OC431)OC1(C)CCC(=C(C)C)C6C1)C2=O (configuration not stated)",
    "Experimental Readout": "normalized growth",
    "Test Result": 0.985
  },
  {
    "Compound": "CSCCC(NC=O)C(=O)NC(Cc1ccccc1)C(=O)O (stereo not drawn) (For-Met-Phe-OH; configuration not given here)",
    "Experimental Readout": "normalized growth",
    "Test Result": 1.02
  },
  {
    "Compound": "COc1ccc2c(c1)c(CC(=O)OCC(=O)O)c(C)n2C(=O)c1ccc(Cl)cc1",
    "Experimental Readout": "normalized growth",
    "Test Result": 1.02
  },
  {
    "Compound": "Nc1ccc(S(=O)(=O)c2ccc(N)cc2)cc1",
    "Experimental Readout": "normalized growth",
    "Test Result": 1.01
  },
  {
    "Compound": "Nc1ccccc1C(=O)CC(N)C(=O)O (configuration not stated)",
    "Experimental Readout": "normalized growth",
    "Test Result": 1.01
  }
]

* * *

Overview of reported normalized growth across a group of molecules:
- Test Details: chemical genetic growth profiling, strain panel (AID 1159580);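 note: tested at 20 µM; growth read once vehicle control cultures reached saturation at 30 °C; 1 = growth at the plate median or of vehicle wells; lower values mean less growth of the strain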
- Run Conditions: S. cerevisiae deletion strains, growth OD, locus YOL006C, strain TOP1, hits give low values
The whole screen tested about 5,500 compounds, of which about 2,000 (36%) were called active. Another 18% or so got no clear call; they are omitted. The list shows a part of the results.

[
  {
    "Molecule": "CNC(=O)O/N=C\\C(C)(C)SC",
    "normalized growth": 1.1
  },
  {
    "Molecule": "Cc1cc(=O)[nH]c(-c2ccccn2)n1",
    "normalized growth": 1.09
  },
  {
    "Molecule": "CC(C)CC(N(C)C)C1(c2ccc(Cl)cc2)CCC1 (stereo unspecified)",
    "normalized growth": 1.03
  },
  {
    "Molecule": "OC(CCN1CCCC1)(c1ccccc1)C1CCCCC1 (stereo unspecified)",
    "normalized growth": 1.02
  },
  {
    "Molecule": "C#C[C@]1(O)CCC2C3CCC4=CC(=O)CC[C@@H]4C3CC[C@@]21C (stereo partly specified)",
    "normalized growth": 0.919
  },
  {
    "Molecule": "CC12CCC3C4CCC(=O)C=C4CCC3C1CCC2=O (stereo unspecified)",
    "normalized growth": 0.971
  },
  {
    "Molecule": "COC(=O)Nc1nc2ccc(Sc3ccccc3)cc2[nH]1",
    "normalized growth": 0.981
  },
  {
    "Molecule": "OC(CCN1CCCCC1)(c1ccccc1)C1CCCCC1 (stereo unspecified)",
    "normalized growth": 0.951
  },
  {
    "Molecule": "C#C[C@]1(O)CCC2C3CCC4=C(CCC(=O)C4)C3CC[C@@]21C (stereo partly specified)",
    "normalized growth": 0.931
  },
  {
    "Molecule": "S=C(NCc1ccccc1)Nc1ccc(Cl)c(Cl)c1",
    "normalized growth": 0.251
  },
  {
    "Molecule": "NC12CC3CC(CC(C3)C1)C2",
    "normalized growth": 1.1
  }
]

* * *

- Test Details: chemical genetic growth profiling, strain panel (AID 1159580);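 note: tested at 20 µM; growth read once vehicle control cultures reached saturation at 30 °C; 1 = growth at the plate median or of vehicle wells; lower values mean less growth of the strain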
- Run Conditions: S. cerevisiae deletion strains, growth OD, locus YOR061W, strain CKA2, hits give low values
In all, about 5,500 compounds went through this assay and about 2,000 (36%) were called active. Inconclusive results (about 18%) are left out. This is one part of the list.
Experimental Readout: normalized growth

[
  {
    "Compound": "OC(CCN1CCCC1)(c1ccccc1)C1CCCCC1 (stereo not drawn)",
    "Test Result": 0.987
  },
  {
    "Compound": "CC(C)(Sc1cc(C(C)(C)C)c(O)c(C(C)(C)C)c1)Sc1cc(C(C)(C)C)c(O)c(C(C)(C)C)c1",
    "Test Result": 1.01
  },
  {
    "Compound": "C#C[C@]1(O)CCC2C3CCC4=CC(=O)CC[C@@H]4C3CC[C@@]21C (stereo partly drawn)",
    "Test Result": 0.985
  },
  {
    "Compound": "Nc1ccccc1C(=O)CC(N)C(=O)O (stereo not drawn)",
    "Test Result": 0.992
  },
  {
    "Compound": "COC(=O)C[C@H]1C(C)(C)C2(O)OC34CC2C(=O)[C@]1(C)C3CC[C@]1(C)C4=CC(=O)O[C@H]1c1ccoc1 (stereo partly drawn)",
    "Test Result": 1.01
  },
  {
    "Compound": "C#C[C@]1(O)CCC2C3CCC4=C(CCC(=O)C4)C3CC[C@@]21C (stereo partly drawn)",
    "Test Result": 1
  },
  {
    "Compound": "Cc1cc(O)ccc1Cl",
    "Test Result": 0.999
  },
  {
    "Compound": "Cc1cc(O)cc(=O)o1",
    "Test Result": 0.991
  }
]

These data points were gathered from PubChem BioAssay AID1159580.
